- test.protocol: Inhibition of yeast alpha-glucosidase using p-nitrophenyl-alpha-d-glucopyranoside as substrate preincubated for 10 mins followed by substrate addition measured after 30 mins
- Design: species or system Saccharomyces cerevisiae
measurement.kind: IC50

Incoming: Need IC50 of Cc1cc(C)cc(-n2c(-c3cn(-c4ccccc4)nc3-c3cc4ccccc4oc3=O)nc(-c3ccccc3)c2-c2ccccc2)c1 , thanks.
Outgoing: 2.5 to 46 µM

Incoming: Need IC50 of COc1cccc(NC(=S)NNC(=O)c2ccc(-c3nc4cc(C)c(C)cc4[nH]3)cc2)c1 , thanks.
Outgoing: 35 to 297 µM

Incoming: Need IC50 of Cc1cc2nc(-c3ccc(C(=O)NNC(=S)Nc4ccccc4F)cc3)[nH]c2cc1C , thanks.
Outgoing: 35 to 297 µM

Incoming: Need IC50 of Cc1cc2nc(-c3ccc(C(=O)N/N=C/c4ccc(O)c(Br)c4)cc3)[nH]c2cc1C , thanks.
Outgoing: 8.4 to 179 µM

Incoming: Need IC50 of Cc1cc2nc(-c3ccc(C(=O)NNC(=S)Nc4cccc([N+](=O)[O-])c4)cc3)[nH]c2cc1C , thanks.
Outgoing: 35 to 297 µM

Incoming: Need IC50 of Cc1cc2nc(-c3ccc(C(=O)N/N=C/c4ccncc4)cc3)[nH]c2cc1C , thanks.
Outgoing: 8.4 to 179 µM

Incoming: Need IC50 of Cc1cc2nc(-c3ccc(C(=O)NNC(=S)Nc4ccccc4Cl)cc3)[nH]c2cc1C , thanks.
Outgoing: 35 to 297 µM

Incoming: Need IC50 of O=c1oc2ccc(Br)cc2cc1-c1nn(-c2ccccc2)cc1-c1nc(-c2ccccc2)c(-c2ccccc2)[nH]1 , thanks.
Outgoing: 2.7 to 23 µM

Incoming: Need IC50 of CCCn1c(-c2cn(-c3ccccc3)nc2-c2cc3ccccc3oc2=O)nc(-c2ccccc2)c1-c1ccccc1 , thanks.
Outgoing: 2.5 to 46 µM

Incoming: Need IC50 of Cc1cc2nc(-c3ccc(C(=O)N/N=C/c4ccc(O)cc4O)cc3)[nH]c2cc1C , thanks.
Outgoing: 8.4 to 9.9 µM

Incoming: Need IC50 of Cc1cc2nc(-c3ccc(C(=O)N/N=C/c4ccccc4C)cc3)[nH]c2cc1C , thanks.
Outgoing: 8.4 to 179 µM

Incoming: Need IC50 of Cc1cc2nc(-c3ccc(C(=O)NNC(=S)Nc4ccc(C(F)(F)F)cc4)cc3)[nH]c2cc1C , thanks.
Outgoing: 35 to 297 µM

Incoming: Need IC50 of Cc1cc2nc(-c3ccc(C(=O)N/N=C/c4ccc([N+](=O)[O-])cc4)cc3)[nH]c2cc1C , thanks.
Outgoing: 8.4 to 179 µM

---

Can you tell me IC50 for the items I'm about to list?
- measurement.target: Alpha glucosidase (Homo sapiens, UniProt O43451+P10253+P14410+Q2M2H8)
- test.protocol: Inhibition of alpha-glucosidase (unknown origin) using p-nitrophenyl-alpha-d-glucopyranoside as substrate preincubated for 15 mins followed by substrate addition measured after 30 mins
- Assay type: protein assay

Incoming: Need IC50 of COc1ccc(-c2csc(N/N=C3\C(=O)N(C)c4ccccc43)n2)cc1 , thanks.
Outgoing: 5.3 to 35 µM

Incoming: Need IC50 of Cn1cc(C2(c3cn(C)c4ccccc34)C(=O)Nc3ccccc32)c2ccccc21 , thanks.
Outgoing: 5.9 to 145 µM

Incoming: Need IC50 of CCCn1cc(C2(c3cn(CCC)c4ccccc34)C(=O)Nc3ccccc32)c2ccccc21 , thanks.
Outgoing: 5.9 to 145 µM

Incoming: Need IC50 of O=c1ccc2ccc(OCC(O)CSc3nnc(-c4ccc(F)cc4)c(-c4ccc(F)cc4)n3)cc2o1 (configuration not stated) , thanks.
Outgoing: 32 to 148 µM

Incoming: Need IC50 of O=c1ccc2ccc(OCC(O)CSc3nnc(-c4ccco4)c(-c4ccco4)n3)cc2o1 (configuration not stated) , thanks.
Outgoing: 32 to 148 µM

Incoming: Need IC50 of O=C(CSc1nnc(-c2ccc(F)cc2)c(-c2ccc(F)cc2)n1)Nc1nc(-c2ccc(F)cc2)cs1 , thanks.
Outgoing: 2.8 to 14 µM

Incoming: Need IC50 of Cc1ccc2c(c1)C(c1c[nH]c3ccccc13)(c1c[nH]c3ccccc13)C(=O)N2 , thanks.
Outgoing: 5.9 to 145 µM

Incoming: Need IC50 of COc1ccc(-c2ccc(O[C@H](C)Cn3cc(-c4ccc(C(F)(F)F)cc4)nn3)c(OC)c2)cc1 , thanks.
Outgoing: 14 µM

Incoming: Need IC50 of COc1cc(Br)ccc1O[C@H](C)Cn1cc(-c2ccc(F)cc2)nn1 , thanks.
Outgoing: 14 to 218 µM

Incoming: Need IC50 of Cc1ccc(C(c2c[nH]c3ccc(C(=O)NNS(=O)(=O)c4ccc(Cl)cc4Cl)cc23)c2c[nH]c3ccc(C(=O)NNS(=O)(=O)c4ccc(Cl)cc4Cl)cc23)cc1 , thanks.
Outgoing: 0.1 to 5.1 µM

Incoming: Need IC50 of O=C1Nc2ccc(F)cc2/C1=N/Nc1nc(-c2ccc(F)cc2)cs1 , thanks.
Outgoing: 5.3 to 35 µM

Incoming: Need IC50 of Cc1ccc(-c2csc(NC(=O)CSc3nnc(-c4ccc(F)cc4)c(-c4ccc(F)cc4)n3)n2)cc1 , thanks.
Outgoing: 2.8 to 14 µM

Reference source: ChEMBL document CHEMBL4304757
